tested on: SK-OV-3; assay: NCI tumour cell line growth inhibition, 48 h
Calls of active or inactive are those of the source. Rule as the data show it: active = GI50 up to about 1.1 µM and inactive = higher. Where a SMILES comes first, the peptide text is derived from it. [ ]: non-standard residue; d: D form. Aoe = N[C@@H](CCCCCC(=O)[C@@H]1CO1)C(=O)O
In this exercise, the only acceptable responses are active, inactive

Test call, this compound: CCN(CC)c1nc(N(C)C)c2ccc(OC)cc2n1
inactive

Test call, this compound: Cc1ccc(C2=Nc3c(N)nc(N)nc3NC(c3ccccc3)C2)cc1 (stereo unspecified)
inactive

Test call, this compound: COC(=O)C1Cc2c([nH]c3ccccc23)-c2[nH]c3ccccc3c2CC(NC(C)=O)C(=O)NCC(=O)NCC(=O)N1 (stereo unspecified)
inactive

Test call, this compound: O=C(O)C(CCc1ccccn1)c1ccccc1 (stereo unspecified)
inactive

Test call, this compound: COc1ccc(C(=O)c2c(C(C(=O)c3ccc(OC)cc3)C(=O)c3ccc(OC)cc3)n(C(=O)c3ccc(OC)cc3)c3ccccc23)cc1
inactive

Test call, this compound: CC(=O)OC1COC(Nc2nc(N)n(C)c(=O)c2N=O)C(OC(C)=O)C1OC(C)=O (stereo unspecified)
inactive

Test call, this compound: CC(=O)N1C(Nc2ccccn2)CCN1c1ccccc1 (stereo unspecified)
inactive

Test call, this compound: O=[N+]([O-])[C@@H]1C2C=CC(C2)[C@H]1Cl (stereo partly specified)
inactive

Test call, this compound: O=C1N[C@@H](Cc2ccccc2)C(=O)N2CCC[C@@H]2C(=O)N[C@@H](CCCCCC(=O)[C@@H]2CO2)C(=O)N[C@H]1Cc1ccccc1 [TRAPOXIN B] (cyclo(FF[dP][Aoe]))
active

Test call, this compound: OCCOc1ccccc2cccc1-2
inactive

Test call, this compound: COc1cc(Cn2c3c(c4cc(O)ccc42)C(=O)c2ccccc2C3=O)cc(OC)c1
inactive

Test call, this compound: COC(=O)c1ccccc1NCc1cc(O)ccc1O
inactive

Test call, this compound: O=C(Cc1ccccc1)Nn1c(-c2ccccc2)nc2ccccc2c1=O
inactive

Test call, this compound: C/C=C\C(CC(=O)NCCC1CN(S(=O)(=O)C(F)(F)F)c2ccccc21)CC(=O)OC (stereo unspecified)
inactive

Test call, this compound: O=C(Nc1c(Cl)cc([N+](=O)[O-])cc1Cl)C(=O)C1C(=O)NC(=S)NC1=O
inactive

Test call, this compound: C/C=C/CP(=O)(c1ccccc1)c1ccccc1
inactive

Test call, this compound: COC(=O)CN(CC(=O)NCCCBr)C1CCCCC1N(CC(=O)OC)CC(=O)OC (stereo unspecified)
inactive

Test call, this compound: CN(C)c1ccc(/C=N/n2c(-c3ccccc3)nc3ccccc3c2=O)cc1
inactive

Test call, this compound: C=CCN1C[C@H](C)N([C@H](c2ccc(C(=O)NC(CC)CC)cc2)c2cccc(OC)c2)C[C@H]1C
inactive

Test call, this compound: CC1=C(O)C(=O)C2C(=O)C1C1Cc3ccccc3C21 (stereo unspecified)
inactive

Test call, this compound: COc1c(O)c2c3c(cc(C)cc3c1C(C)C)OC2
inactive

* * *

tested on: SR; assay: NCI tumour cell line growth inhibition, 48 h
Activity calls are given as the source filed them. Rule as the data show it: active = GI50 up to about 1.1 µM and inactive = higher.
In this exercise, the only acceptable responses are active, inactive

Test call, this compound: Cn1c(=O)c2c(nc3n(CCCCl)c(=O)ccn23)n(C)c1=O
inactive

Test call, this compound: COc1ccc(C2=NNC(c3cc4cc(Br)ccc4nc3Cl)C2)cc1 (stereo not given)
active

Test call, this compound: CSC(SC)=C1CC(=O)Nc2ccccc2C1=O
inactive

Test call, this compound: O=Cc1ccc(-c2ccc(S(=O)(=O)O)cc2)o1
inactive

Test call, this compound: O=C(CSC1=NCCN1)c1ccccc1
inactive

Test call, this compound: O=[N+]([O-])c1cc2c(c([N+](=O)[O-])c1)NCc1ccccc1O2
inactive

Test call, this compound: O=C1CSC2(CC(/C=C/c3ccccc3Br)=NN2c2cccc(S(=O)(=O)O)c2)N1c1nc2ccccc2s1 (stereo not given)
inactive

Test call, this compound: COC(=O)/C=C\[C@H]1[C@H](C)N1S(=O)(=O)c1ccc(C)cc1 (stereo not given in full)
inactive

Test call, this compound: Cc1cccc2c1Oc1cc(Cl)ccc1C2NC(=O)CCN1CCOCC1 (stereo not given)
inactive

Test call, this compound: N#CC1=C(N)N(/N=C/c2ccccc2)C(c2ccccc2)C1(C#N)C#N (stereo not given)
inactive

Test call, this compound: Cc1ccc(C2=Nc3c(N)nc(N)nc3NC(c3ccccc3)C2)cc1 (stereo not given)
inactive

Test call, this compound: COC1/C=C/C(C)C(C(C)C(OC)C(C)CCC(=O)C(C)C(C/C=C/N(C)C=O)OC)OC(=O)/C=C/C=C(\C)CC(OC)C(OC)C2=CC(=O)O[C@@H](C(C)C(OC)CC(OC)/C=C/C(C)C(O)C1)[C@H]2O (stereo not given in full)
active

Test call, this compound: C=CCC1(O)CC(n2cc(C)c(=O)[nH]c2=O)OC1CO[Si](C)(C)C(C)(C)C (stereo not given)
inactive

Test call, this compound: CN(C)CC(CN(C)C)c1ccccn1
inactive

Test call, this compound: CCCCOC(=O)NC(=O)c1cn(CCCOC(=O)CCCCCCCCC(=O)OCCCn2cc(C(=O)NC(=O)OCCCC)c(=O)n(C)c2=O)c(=O)n(C)c1=O
inactive

Test call, this compound: COc1nc(NC2OCC(OC(C)=O)C(OC(C)=O)C2OC(C)=O)c(-c2csc(N)n2)c(=O)n1C (stereo not given)
inactive

Test call, this compound: CN(C)C(=O)c1nnsc1NN=O
inactive

Test call, this compound: Nc1ccc(Oc2ccc(C3(c4ccc(Oc5ccc(N)cc5)cc4)C4CC5C6CC7CC5C3C(C7)C6C4)cc2)cc1
inactive

Test call, this compound: CCN(CCCl)c1cccc(NC(=O)c2ccc(C(=O)Nc3cccc(CN(C)C)c3)cc2)c1
active

Test call, this compound: O=C1OCC/C1=C/c1ccc(/N=N/c2c(O)ccc3ccccc23)cc1
inactive
